ASSAY SYSTEM: EGFR wildtype (WT) (Homo sapiens, UniProt P00533)
Sequence (P00533 25-1210): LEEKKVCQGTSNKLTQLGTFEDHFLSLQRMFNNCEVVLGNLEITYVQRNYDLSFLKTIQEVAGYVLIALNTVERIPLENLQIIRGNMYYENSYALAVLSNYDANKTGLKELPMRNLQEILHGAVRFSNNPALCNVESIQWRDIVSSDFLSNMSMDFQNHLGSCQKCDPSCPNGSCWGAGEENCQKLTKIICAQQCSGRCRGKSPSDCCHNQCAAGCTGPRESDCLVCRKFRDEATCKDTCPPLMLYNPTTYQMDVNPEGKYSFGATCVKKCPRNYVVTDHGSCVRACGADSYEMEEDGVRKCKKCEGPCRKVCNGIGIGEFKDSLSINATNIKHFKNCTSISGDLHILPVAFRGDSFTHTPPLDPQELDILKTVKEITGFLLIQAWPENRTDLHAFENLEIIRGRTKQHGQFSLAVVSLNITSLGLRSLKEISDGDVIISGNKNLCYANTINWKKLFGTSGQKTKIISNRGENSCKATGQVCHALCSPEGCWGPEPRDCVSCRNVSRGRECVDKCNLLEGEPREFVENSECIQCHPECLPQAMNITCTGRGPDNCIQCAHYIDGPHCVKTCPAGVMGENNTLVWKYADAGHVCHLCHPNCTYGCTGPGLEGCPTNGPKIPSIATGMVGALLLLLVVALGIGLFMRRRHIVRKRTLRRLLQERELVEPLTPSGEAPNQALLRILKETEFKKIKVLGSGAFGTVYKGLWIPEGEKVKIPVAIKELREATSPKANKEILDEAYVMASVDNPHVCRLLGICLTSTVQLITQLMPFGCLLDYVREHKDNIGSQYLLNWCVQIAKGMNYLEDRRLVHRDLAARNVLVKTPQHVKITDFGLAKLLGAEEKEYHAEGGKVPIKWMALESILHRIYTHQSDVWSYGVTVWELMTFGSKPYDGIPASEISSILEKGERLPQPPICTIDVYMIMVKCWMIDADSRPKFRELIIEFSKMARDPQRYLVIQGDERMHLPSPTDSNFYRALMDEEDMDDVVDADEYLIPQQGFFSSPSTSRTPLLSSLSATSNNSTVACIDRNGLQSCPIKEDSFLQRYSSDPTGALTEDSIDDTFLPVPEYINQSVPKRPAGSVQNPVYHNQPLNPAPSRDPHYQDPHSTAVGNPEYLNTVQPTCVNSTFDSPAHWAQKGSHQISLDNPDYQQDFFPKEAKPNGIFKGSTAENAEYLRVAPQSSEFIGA
ASSAY PROTOCOL: Biochemical EGFR kinase inhibition assay (Lance Ultra TR-FRET), wildtype
ASSAY CONTEXT: Km ATP; read-out: IC50 WT (nM) Km ATP
Description: Biochemical EGFR kinase assays were conducted using Lance Ultra time-resolved fluorescence resonance energy transfer (TR-FRET) technology from Perkin-Elmer. […] Each kinase reactions were incubated at room temperature for 1 hour and then stopped by the addition of 4 μL of stop solution (10 mM EDTA). […] After 60 minutes incubation at room temperature the LANCE signal was measured on an EnVision Multilabel Reader (Perkin-Elmer). […]
EXPERIMENTAL READOUT: IC50 (nM)

CN(C)CCCn1cc(C#Cc2cnc(Nc3ccnc(-c4cnn(S(=O)(=O)C5CC5)c4)n3)cc2N2CCC(C)(CO)CC2)cn1 [Example 120] : 1.6
CN(C)CCCn1cc(C#Cc2cnc(Nc3ccnc(-c4cnn(S(=O)(=O)C5CC5)c4)n3)cc2N2CCCC(CO)C2)cn1 (stereo not shown) [Example 122] : 7.8
Cn1cc(C#Cc2cnc(Nc3ccnc(-c4cnn(S(=O)(=O)C5CC5)c4)n3)cc2N[C@H]2CC[C@@H](O)CC2)cn1 [Example 41] : 23.8
Cn1cc(-c2cc(Nc3ccnc(-c4cnn(S(=O)(=O)C5CC5)c4)n3)ncc2C#Cc2cnn(CCF)c2)cn1 [Example 234] : 1010

[a] Cn1cc(C#Cc2cnc(Nc3ccnc(-c4cnn(S(=O)(=O)C5CC5)c4)n3)cc2N[C@@H]2CCC[C@@H](O)C2)cn1 [Example 76]
[b] CN(C)CCCn1cc(C#Cc2cnc(Nc3ccnc(-c4cnn(S(=O)(=O)C5CC5)c4)n3)cc2N2CCC(F)(CO)CC2)cn1 [Example 121]
Which is greater in IC50, the first item a or the second item b ? Field: selected label. Fill in the label of the entry you choose.
a

[A] CCC(C)Nc1cc(Nc2ccnc(-c3cnn(S(=O)(=O)C4CC4)c3)n2)ncc1C#Cc1cnn(C(C)C)c1 (stereo not shown) [Example 25]
[B] Cn1cc(C#Cc2cnc(Nc3ccnc(-c4cnn(S(=O)(=O)C5CC5)c4)n3)cc2N[C@H]2CCC[C@@H](O)C2)cn1 [Example 75]
Smaller IC50 value? Options are A and B Field: selected label. Fill in the label of the entry you choose.
B
(B: 45.6 nM, A: 915 nM)

[a] CN(C)Cc1ccc(CNc2cc(Nc3ccnc(-c4cnn(S(=O)(=O)C5CC5)c4)n3)ncc2C#Cc2cnn(CC(F)F)c2)cc1 [Example 52]
[b] CC(C)Nc1cc(Nc2ccnc(-c3cnn(S(=O)(=O)C4CC4)c3)n2)ncc1C#Cc1cnn(CC(F)F)c1 [Example 23]
[c] CNCC1(C)CCN(c2cc(Nc3ccnc(-c4cnn(S(=O)(=O)C5CC5)c4)n3)ncc2C#Cc2cnn(C)c2)CC1 [Example 146]
[d] CN1CCn2ncc(C#Cc3cnc(Nc4ccnc(-c5cnn(S(=O)(=O)C6CC6)c5)n4)cc3N3CCC(C)(CO)CC3)c2C1 [Example 150]
[e] Cn1cc(C#Cc2cnc(Nc3ccnc(-c4cnn(S(=O)(=O)C5CC5)c4)n3)cc2N2CCCC(CO)C2)cn1 (stereo not shown) [Example 9]
Ordering: ascending IC50. // list labels; follow requested order
c, d, e, a, b

[1] CCC(C)Nc1cc(Nc2ccnc(-c3cnn(S(=O)(=O)C4CC4)c3)n2)ncc1C#Cc1cnn(C)c1 (stereo not shown) [Example 24]
[2] Cn1ccc(C#Cc2cnc(Nc3ccnc(-c4cnn(S(=O)(=O)C5CC5)c4)n3)cc2N[C@H]2CC[C@@H](O)CC2)n1 [Example 106]
[3] CN(C)C[C@H]1CC[C@H](COc2cc(Nc3ccnc(-c4cnn(S(=O)(=O)C5CC5)c4)n3)ncc2C#Cc2cccnc2)CC1 [Example 62]
[4] Cn1cc(C#Cc2cnc(Nc3ccnc(-c4cnn(S(=O)(=O)C5CC5)c4)n3)cc2N2CCCC(CO)CC2)cn1 (stereo not shown) [Example 78]
Rank by IC50 (largest to smallest). // list labels; follow requested order
1, 4, 2, 3
(1: 462 nM, 4: 163 nM, 2: 95.5 nM, 3: 7.9 nM)

[I] CC(C)Nc1cc(Nc2ccnc(-c3cnn(S(=O)(=O)C4CC4)c3)n2)ncc1C#Cc1cnn(CCF)c1 [Example 20]
[II] CC1(CO)CCN(c2cc(Nc3ccnc(-c4cnn(S(=O)(=O)C5CC5)c4)n3)ncc2C#Cc2cnn(C(F)(F)F)c2)CC1 [Example 101]
Smaller IC50 value? Options are I and II Field: selected label. Fill in the label of the entry you choose.
II
(II: 32 nM, I: 517 nM)

[a] CN(C)CCNC1CCN(c2cc(Nc3ccnc(-c4cnn(S(=O)(=O)C5CC5)c4)n3)ncc2C#Cc2cnn(C3CCOCC3)c2)CC1 [Example 138]
[b] O=S(=O)(C1CC1)n1cc(-c2nccc(Nc3cc(N4CCN(CCO)CC4)c(C#Cc4cnn(CCF)c4)cn3)n2)cn1 [Example 16]
Which is greater in IC50, the first item a or the second item b ? Field: selected label. Fill in the label of the entry you choose.
b

----------
ASSAY SYSTEM: EGFR Del19/C797S (Homo sapiens, UniProt P00533, C797S/DEL746-750)
Sequence (P00533 with tags, fused parts or gaps DEL746-750/C797S): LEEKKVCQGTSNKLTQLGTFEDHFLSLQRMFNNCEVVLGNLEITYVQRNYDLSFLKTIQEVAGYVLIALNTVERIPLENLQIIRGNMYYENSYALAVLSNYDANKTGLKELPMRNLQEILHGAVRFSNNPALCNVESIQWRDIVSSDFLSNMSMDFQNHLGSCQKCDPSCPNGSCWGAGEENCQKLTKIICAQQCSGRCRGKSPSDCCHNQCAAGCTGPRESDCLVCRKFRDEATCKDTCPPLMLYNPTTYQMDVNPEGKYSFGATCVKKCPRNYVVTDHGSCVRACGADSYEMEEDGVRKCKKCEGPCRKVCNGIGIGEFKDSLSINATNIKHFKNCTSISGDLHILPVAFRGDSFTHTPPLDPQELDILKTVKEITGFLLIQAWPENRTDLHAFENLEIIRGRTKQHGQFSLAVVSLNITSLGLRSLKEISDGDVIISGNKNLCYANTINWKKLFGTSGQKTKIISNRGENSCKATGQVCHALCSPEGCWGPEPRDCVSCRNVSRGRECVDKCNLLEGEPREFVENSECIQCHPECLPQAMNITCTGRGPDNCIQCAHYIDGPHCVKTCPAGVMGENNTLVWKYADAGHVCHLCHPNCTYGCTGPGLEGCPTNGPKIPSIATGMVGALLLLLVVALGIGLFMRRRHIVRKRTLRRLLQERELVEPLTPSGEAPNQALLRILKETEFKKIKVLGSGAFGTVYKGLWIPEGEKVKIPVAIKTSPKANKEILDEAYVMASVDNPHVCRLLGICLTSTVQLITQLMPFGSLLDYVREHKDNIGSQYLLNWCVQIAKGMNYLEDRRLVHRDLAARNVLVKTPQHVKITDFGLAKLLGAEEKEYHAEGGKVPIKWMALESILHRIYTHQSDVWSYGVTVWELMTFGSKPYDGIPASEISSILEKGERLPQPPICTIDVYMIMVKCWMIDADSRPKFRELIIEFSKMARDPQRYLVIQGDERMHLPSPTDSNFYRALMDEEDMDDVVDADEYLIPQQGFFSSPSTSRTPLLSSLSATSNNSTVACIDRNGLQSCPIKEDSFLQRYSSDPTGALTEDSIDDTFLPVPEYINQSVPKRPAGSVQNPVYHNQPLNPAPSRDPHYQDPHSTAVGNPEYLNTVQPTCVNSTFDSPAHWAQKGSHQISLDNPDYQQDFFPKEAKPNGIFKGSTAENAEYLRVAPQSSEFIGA
ASSAY PROTOCOL: Biochemical EGFR kinase inhibition assay (Lance Ultra TR-FRET), double mutant del19/C797S
ASSAY CONTEXT: ATP at Km; read-out: IC50 Del19/C797S (nM), Km ATP
EXPERIMENTAL READOUT: IC50 (nM)

CN1CCC(C#Cc2cnc(Nc3ccnc(-c4cnn(S(=O)(=O)C5CC5)c4)n3)cc2N2CCC(C)(CO)CC2)C1 (stereo not drawn) : 0.5
CC1(CO)CCN(c2cc(Nc3ccnc(-c4cnn(S(=O)(=O)C5CC5)c4)n3)ncc2C#Cc2cnn(C3CCOC3)c2)CC1 (stereo not drawn) : 0.6

[1] CC1(CO)CCN(c2cc(Nc3ccnc(-c4cnn(S(=O)(=O)C5CC5)c4)n3)ncc2C#CC2CCOCC2)CC1
[2] Cn1cc(C#Cc2cnc(Nc3ccnc(-c4cnn(S(=O)(=O)C5CC5)c4)n3)cc2N2CC3(CCNCC3)C2)cn1
[3] O=S(=O)(C1CC1)n1cc(-c2nccc(Nc3cc(N[C@H]4CC[C@@H](O)CC4)c(C#Cc4ccc(CN5CCOCC5)cc4)cn3)n2)cn1
[4] CC(O)C1CCN(c2cc(Nc3ccnc(-c4cnn(S(=O)(=O)C5CC5)c4)n3)ncc2C#Cc2cnn(C(F)(F)F)c2)CC1 (stereo not drawn)
Rank by IC50 (largest to smallest). // list labels; follow requested order
4, 2, 3, 1
(4: 36.6 nM, 2: 20.8 nM, 3: 3.7 nM, 1: 0.8 nM)

----------
ASSAY SYSTEM: EGFR wildtype (WT) (Homo sapiens, UniProt P00533)
ASSAY PROTOCOL: Biochemical EGFR kinase inhibition assay (Lance Ultra TR-FRET), wildtype
ASSAY CONTEXT: ATP at Km; read-out: IC50 WT (nM), Km ATP
EXPERIMENTAL READOUT: IC50 (nM)

CC(C)Nc1cc(Nc2ccnc(-c3cnn(S(=O)(=O)C4CC4)c3)n2)ncc1C#CCN1CCS(=O)(=O)CC1 : 292

[I] Cn1cnc(C#Cc2cnc(Nc3ccnc(-c4cnn(S(=O)(=O)C5CC5)c4)n3)cc2N[C@H]2CC[C@@H](O)CC2)n1
[II] O=S(=O)(C1CC1)n1cc(-c2nccc(Nc3cc(N[C@H]4CC[C@@H](O)CC4)c(C#CC4CCOCC4)cn3)n2)cn1
[III] O=S(=O)(C1CC1)n1cc(-c2nccc(Nc3cc(N[C@H]4CC[C@@H](O)CC4)c(C#CC4(O)CCOCC4)cn3)n2)cn1
[IV] CC1(CO)CCN(c2cc(Nc3ccnc(-c4cnn(S(=O)(=O)C5CC5)c4)n3)ncc2C#CC2(O)CCOCC2)CC1
[V] CN(C)CC1(C)CCN(c2cc(Nc3ccnc(-c4cnn(S(=O)(=O)C5CC5)c4)n3)ncc2C#Cc2cnn(C)c2)CC1
Ordering: ascending IC50. // list labels; follow requested order
V, II, IV, III, I

----------
ASSAY SYSTEM: EGFR L858R/C797S (Homo sapiens, UniProt P00533, C797S/L858R)
Sequence (P00533 25-1210 C797S/L858R): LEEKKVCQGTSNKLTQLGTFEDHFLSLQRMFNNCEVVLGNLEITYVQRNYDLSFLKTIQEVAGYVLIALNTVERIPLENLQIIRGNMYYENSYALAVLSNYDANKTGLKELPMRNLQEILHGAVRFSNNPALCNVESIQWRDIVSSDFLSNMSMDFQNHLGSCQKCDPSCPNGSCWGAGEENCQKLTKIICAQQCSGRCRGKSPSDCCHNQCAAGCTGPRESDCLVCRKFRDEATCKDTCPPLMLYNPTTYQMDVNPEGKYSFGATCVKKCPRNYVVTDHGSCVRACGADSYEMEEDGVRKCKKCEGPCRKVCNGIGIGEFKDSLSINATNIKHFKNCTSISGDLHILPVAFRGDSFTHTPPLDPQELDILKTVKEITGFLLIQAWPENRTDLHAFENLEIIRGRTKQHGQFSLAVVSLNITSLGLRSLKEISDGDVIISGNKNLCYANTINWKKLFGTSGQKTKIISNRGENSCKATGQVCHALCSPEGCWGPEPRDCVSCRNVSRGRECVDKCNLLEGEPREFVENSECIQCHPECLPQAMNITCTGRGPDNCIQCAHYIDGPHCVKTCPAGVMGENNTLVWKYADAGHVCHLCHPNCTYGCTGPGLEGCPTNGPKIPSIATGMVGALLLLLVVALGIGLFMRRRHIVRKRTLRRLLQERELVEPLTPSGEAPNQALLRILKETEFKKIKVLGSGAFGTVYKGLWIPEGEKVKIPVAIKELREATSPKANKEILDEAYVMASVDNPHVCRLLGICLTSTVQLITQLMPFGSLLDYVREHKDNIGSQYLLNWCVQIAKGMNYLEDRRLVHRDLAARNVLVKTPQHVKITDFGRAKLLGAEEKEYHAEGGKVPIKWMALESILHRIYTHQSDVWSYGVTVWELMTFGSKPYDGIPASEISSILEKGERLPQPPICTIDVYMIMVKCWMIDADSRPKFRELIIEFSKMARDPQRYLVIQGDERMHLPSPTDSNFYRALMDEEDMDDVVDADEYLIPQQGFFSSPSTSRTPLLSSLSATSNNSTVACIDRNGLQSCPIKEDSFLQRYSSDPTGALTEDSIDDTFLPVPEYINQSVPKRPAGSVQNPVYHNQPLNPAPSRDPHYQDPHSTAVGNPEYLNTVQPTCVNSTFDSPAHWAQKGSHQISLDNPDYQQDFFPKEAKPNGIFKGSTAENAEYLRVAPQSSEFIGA
ASSAY PROTOCOL: Biochemical EGFR kinase inhibition assay (Lance Ultra TR-FRET), double mutant L858R/C797S
ASSAY CONTEXT: ATP at Km; read-out: IC50 L858R/C797S (nM), Km ATP
EXPERIMENTAL READOUT: IC50 (nM)

Below, 3 compounds whose answers are already recorded.
O=S(=O)(C1CC1)n1cc(-c2nccc(Nc3cc(N[C@H]4CC[C@@H](O)CC4)c(C#CC4(O)CCOCC4)cn3)n2)cn1 : 6.8
C=CC#Cc1cnc(Nc2ccnc(-c3cnn(S(=O)(=O)C4CC4)c3)n2)cc1N1CCC(C)(CO)CC1 : 2.5
O=S(=O)(C1CC1)n1cc(-c2nccc(Nc3cc(N[C@H]4CC[C@@H](O)CC4)c(C#Cc4ncc(CN5CCOCC5)cn4)cn3)n2)cn1 : 3.4

[A] CC1(CO)CCN(c2cc(Nc3ccnc(-c4cnn(S(=O)(=O)C5CC5)c4)n3)ncc2C#Cc2cn(CC(F)F)c3ccncc23)CC1
[B] CC(O)C1CCN(c2cc(Nc3ccnc(-c4cnn(S(=O)(=O)C5CC5)c4)n3)ncc2C#Cc2cnn(C(F)(F)F)c2)CC1 (centres unmarked)
Which is greater in IC50, the first item A or the second item B ? Field: selected label. Fill in the label of the entry you choose.
B
(B: 25.8 nM, A: 4.7 nM)
